For each of the sequences below, state its target mRNA inhibition.
target: IRF5; conditions: ASO, KARPAS-229, 4 µM
After the bases stand the sugars from the 5' end (letter, count) and the backbone: PS all phosphorothioate, else s phosphorothioate and o phosphodiester by linkage. Methylation of C is not given here. e = 2'-O-(2-methoxyethyl) (MOE); k = constrained ethyl (cEt); d = 2'-deoxy (DNA)
One number for each entry, in %.

Residue Codes	System Name	target mRNA inhibition, %
CCTTCTGCAGGGAGTC (sugars k3 d10 k3, PS)	IRF5	0
GGTCTTTGAGGTCTGG (sugars k2 d8 e4 k2, PS)	IRF5	56
AGGTTCTTGGACTCTC (sugars kkdddddddddkekek, PS)	IRF5	38

List target mRNA inhibition for every entry below, keeping the order given.
1. GCTTGGTCTTGACCTC (sugars kddddddddddkekek, PS)
2. TTATTTCTGCTCCAGG (sugars kkdddddddddkekek, PS)
3. CTGACACAGGCGGATG (sugars kdddddddddkekeke, PS)

1: 18; 2: 9; 3: 0
